# TESTED_ON: Cytochrome P450 3A4 (Homo sapiens)
# PROTOCOL_NOTES: Cytochrome panel assay with activity outcomes
# CONDITION_LABEL: recombinant CYP, pro-luciferin dealkylation, luminescence, p450-cyp3a4; series mostly up to 57.1 µM
Hit rate of the full screen: of about 16,000 compounds, about 5,100 (32%) were called active. Inconclusive results (about 25%) are left out. The call rests on the fitted dose curve; in most records, active means well fitted curve in the direction sought with a large enough effect; inconclusive means small, poorly fitted or top-dose-only effect, or effect the other way; inactive means no such curve, though single readings can be large or run the other way. This is one part of the list.
# valid calls are yes (1) for active, no (0) for inactive; nothing else

query: Please state the recorded outcome for this molecule: COc1ccc(C(=O)O/N=C/c2ccc(S(=O)c3ccc(Cl)cc3)nc2)cc1 (stereo not given)
result: no (0)

query: Please state the recorded outcome for this molecule: Cc1nc2c(C(=O)NCc3ccc4c(c3)OCO4)c[nH]n2c(=O)c1Cc1ccccc1F
result: yes (1)

query: Please state the recorded outcome for this molecule: CC1Cc2ccccc2N1C(=O)C1CCCCN1S(=O)(=O)c1ccccc1 (stereo not given)
result: yes (1)

query: Please state the recorded outcome for this molecule: O=C(NCc1ccccc1)C12CN(Cc3ccccc3)CC1C(c1cccc([N+](=O)[O-])c1)=NO2 (stereo not given)
result: yes (1)

query: Please state the recorded outcome for this molecule: COc1cccc(-n2ccnc2SCC(=O)Nc2nccs2)c1
result: yes (1)

query: Please state the recorded outcome for this molecule: CC(C)[C@H]1C(=O)C(C(N)=O)=C(O)[C@]2(O)C(=O)C3=C(O)c4c(O)ccc(N(C)C)c4C[C@H]3C[C@@H]12
result: no (0)

query: Please state the recorded outcome for this molecule: CCn1ccc(C(=O)NC2=C(C#N)CCC2)n1
result: no (0)

query: Please state the recorded outcome for this molecule: CC1=CC2=NC(=O)CC(C)(C(=O)N(CC(=O)NC(C)(C)C)Cc3cccs3)N2C=C1 (stereo not given)
result: no (0)

query: Please state the recorded outcome for this molecule: CO[C@H]1COC(=O)[C@H](C)NC(=O)C/C=C\[C@@H](C)[C@@H](NS(=O)(=O)c2ccc(C)cc2)COC(=O)C/C=C\[C@@H]1C
result: yes (1)

query: Please state the recorded outcome for this molecule: CC(C)(C)NC(=O)CN(Cc1cccs1)C(=O)CCC(=O)Nc1nccs1
result: yes (1)

query: Please state the recorded outcome for this molecule: CO[C@H]1COC(=O)[C@H](C)NC(=O)C/C=C\[C@@H](C)[C@@H](NS(=O)(=O)c2ccc(C)cc2)COC(=O)[C@H](OCc2ccccc2)/C=C\[C@@H]1C
result: yes (1)

query: Please state the recorded outcome for this molecule: Cn1ccnc1SCC(=O)Nc1sccc1C#N
result: yes (1)

query: Please state the recorded outcome for this molecule: Cc1ccc(C(=O)CN(C(=O)c2ccc(Cl)cc2)N2C(=O)c3ccccc3C2=O)cc1
result: yes (1)

query: Please state the recorded outcome for this molecule: CN(C)CCN(Cc1cccs1)c1ccccn1
result: no (0)

query: Please state the recorded outcome for this molecule: COc1ccc(C(=O)CN(C(=O)c2ccc(Cl)cc2)N2C(=O)c3ccccc3C2=O)cc1
result: yes (1)

query: Please state the recorded outcome for this molecule: O=C(CN(Cc1ccccc1Cl)C(=O)c1ccc(CN2CCOCC2)o1)NCC1CCCO1 (stereo not given)
result: yes (1)

query: Please state the recorded outcome for this molecule: Cc1oc(-c2cccc(Cl)c2)[n+]([O-])c1C
result: no (0)

query: Please state the recorded outcome for this molecule: Cn1c(SCC(=O)Nc2ccccc2)nc(O)cc1=O
result: yes (1)

query: Please state the recorded outcome for this molecule: CC(=O)N1c2ccc(S(=O)(=O)CCC(=O)O)cc2CC1C (stereo not given)
result: no (0)

query: Please state the recorded outcome for this molecule: O=C(CSCc1c(F)cccc1Cl)NCC1CCCO1 (stereo not given)
result: no (0)
